Numbers sourced from patent US20260274833A1.

Give log10 of IC50 for every item shown.
measured_on: CDK2 (Homo sapiens, UniProt P24941)
Construct: endogenous in cells; host or cells: OVCAR3 cells
assay_name: Phospho-RB measurement in OVCAR3 cells (HTRF phospho-RB cellular kit)
Type: cell-based
condition_notes: inhibition of RB phosphorylation at S807/811 (HTRF, TR-FRET ratio 665/620), 24 h compound treatment, 0.3 to 10,000 nM
# log10 transformed; quantity=IC50; unit=nM

>  <molecule>
CN(C1CNC1)S(=O)(=O)N1CCC(Nc2nccc(-c3sc(C(C)(C)C)nc3-c3cccc(NS(=O)(=O)N4Cc5ccccc5C4)c3F)n2)CC1 [Example 173]

>  <measured_on>
CDK2 (Homo sapiens, UniProt P24941)

>  <log10 of IC50>
2.59

$$$$

I have 5 molecules here; please give me log10 of IC50 for each one.
1. CC(C)(C)c1nc(-c2cccc(NS(=O)(=O)N3CCn4c(nnc4C(F)(F)F)C3)c2F)c(-c2ccnc(NC3CCN(S(C)(=O)=O)CC3)n2)s1 [Example 94]
2. CN(C)CCOc1cccc2c1CN(S(=O)(=O)Nc1cccc(-c3nc(C(C)(C)C)sc3-c3ccnc(NC4CCN(S(C)(=O)=O)CC4)n3)c1F)C2 [Example 150]
3. CC1c2ccccc2CN1S(=O)(=O)Nc1cccc(-c2nc(C(C)(C)C)sc2-c2ccnc(NC3CCN(S(C)(=O)=O)CC3)n2)c1F (stereo not drawn) [Example 109]
4. CC(C)(C)c1nc(-c2cccc(NS(=O)(=O)N3CCc4c(C#N)cccc43)c2F)c(-c2ccnc(NC3CCN(S(C)(=O)=O)CC3)n2)s1 [Example 104]
5. CN(C)Cc1cccc2c1CCN2S(=O)(=O)Nc1cccc(-c2nc(C(C)(C)C)sc2-c2ccnc(NC3CCN(S(C)(=O)=O)CC3)n2)c1F [Example 133]

Response:
3.77
3.26
2.32
1.91
2.52

---

measured_on: CDK2 (Homo sapiens, UniProt P24941)
Construct: endogenous in cells; host or cells: OVCAR3 cells
assay_name: Phospho-RB measurement in OVCAR3 cells (HTRF phospho-RB cellular kit)
Format: cell-based
condition_notes: inhibition of RB phosphorylation at S807/811 (HTRF, TR-FRET ratio 665/620), 24 h compound treatment, 0.3 to 10,000 nM
endpoint: log10(IC50) (log10 of the value in nM)
Short version: log10 scale, IC50, nM.

Examples with their reported log10(IC50) follow.
>  <compound>
CC(C)(C)c1nc(-c2cccc(NS(=O)(=O)N3CCc4cc(C#N)ccc43)c2F)c(-c2ccnc(NC3CC4(C3)CS(=O)(=O)C4)n2)s1 [Example 195]

>  <log10(IC50)>
2.51

$$$$
>  <compound>
O=S1(=O)CC2(CC(Nc3nccc(-c4sc(C56CC(C5)C6)nc4-c4cccc(NS(=O)(=O)N5CCc6c5ccc(F)c6F)c4F)n3)C2)C1 [Example 45]

>  <log10(IC50)>
2.50

$$$$
>  <compound>
CNCc1ccc2c(c1)CCN2S(=O)(=O)Nc1cccc(-c2nc(C(C)(C)C)sc2-c2ccnc(NC3CCN(S(C)(=O)=O)CC3)n2)c1F [Example 159]

>  <log10(IC50)>
3.61

$$$$
>  <compound>
O=S1(=O)CC2(CC(Nc3nccc(-c4sc(C56CC(C5)C6)nc4-c4cccc(NS(=O)(=O)N5CCCc6ccccc6C5)c4F)n3)C2)C1 [Example 50]

>  <log10(IC50)>
2.36

$$$$
>  <compound>
CC(C)(C)c1nc(-c2cccc(NS(=O)(=O)N3CCCCc4ccccc43)c2F)c(-c2ccnc(NC3CCN(S(C)(=O)=O)CC3)n2)s1 [Example 82]

>  <log10(IC50)>
2.93

$$$$

// next entry
log10(IC50) reading for O=S1(=O)CC2(CC(Nc3nccc(-c4sc(C56CC(C5)C6)nc4-c4cccc(NS(=O)(=O)N5Cc6cccc(C(F)(F)F)c6C5)c4F)n3)C2)C1 [Example 25] : 1.88

---

Kindly supply the reported IC50 values for the records listed here.
measured_on: CDK2 (Homo sapiens)
Construct: endogenous in cells; host or cells: OVCAR3 cells
assay_name: Phospho-RB measurement in OVCAR3 cells (HTRF phospho-RB cellular kit)
Type: cell-based
condition_notes: inhibition of RB phosphorylation at S807/811 (HTRF, TR-FRET ratio 665/620), 24 h compound treatment, 0.3 to 10,000 nM
Answers are plain numbers, in nM.

>  <mol_smiles>
CC1(c2nc(-c3cccc(NS(=O)(=O)N4Cc5cccc(C(F)(F)F)c5C4)c3F)c(-c3ccnc(NC4CC5(C4)CS(=O)(=O)C5)n3)s2)CCOCC1

>  <IC50 [nM]>
48.6

$$$$

Could I get IC50 for every one of these entries?
1. O=S1(=O)CC2(CC(Nc3nccc(-c4sc(C56CC(C5)C6)nc4-c4cccc(NS(=O)(=O)N5CCc6ccccc6C5)c4F)n3)C2)C1
2. COc1cccc2c1CN(S(=O)(=O)Nc1cccc(-c3nc(C4(C)CCOCC4)sc3-c3ccnc(NC4CC5(C4)CS(=O)(=O)C5)n3)c1F)C2

Response:
1: 476; 2: 75.5

---

measured_on: CDK2 (Homo sapiens, UniProt P24941)
Construct: endogenous in cells; host or cells: OVCAR3 cells
assay_name: Phospho-RB measurement in OVCAR3 cells (HTRF phospho-RB cellular kit)
Format: cell-based
condition_notes: inhibition of RB phosphorylation at S807/811 (HTRF, TR-FRET ratio 665/620), 24 h compound treatment, 0.3 to 10,000 nM
endpoint: pIC50
Answers are plain numbers, as −log10 of the molar value.

These recorded examples may help you get a feel for the data.
>  <mol_smiles>
O=S1(=O)CC2(CC(Nc3nccc(-c4sc(C56CC(C5)C6)nc4-c4cccc(NS(=O)(=O)N5CCc6ccc(C(F)(F)F)cc65)c4F)n3)C2)C1

>  <pIC50>
6.92

$$$$
>  <mol_smiles>
CC(C)(C)c1nc(-c2cccc(NS(=O)(=O)N3Cc4ccc(F)cc4C3)c2F)c(-c2ccnc(NC3CCN(S(=O)(=O)N4CCNCC4)CC3)n2)s1

>  <pIC50>
6.64

$$$$
>  <mol_smiles>
COCCN1CCN(c2ccc(Nc3nccc(-c4sc(C(C)(C)C)nc4-c4cccc(NS(=O)(=O)N5CCc6ccc(C#N)cc65)c4F)n3)cc2)CC1

>  <pIC50>
6.12

$$$$
>  <mol_smiles>
O=S1(=O)CC2(CC(Nc3nccc(-c4sc(C56CC(C5)C6)nc4-c4cccc(NS(=O)(=O)N5CCc6ccc(OC(F)F)cc65)c4F)n3)C2)C1

>  <pIC50>
6.86

$$$$
>  <mol_smiles>
CC(C)(C)c1nc(-c2cccc(NS(=O)(=O)N3Cc4ccncc4C3)c2F)c(-c2ccnc(NC3CCN(S(=O)(=O)N4CCNCC4)CC3)n2)s1

>  <pIC50>
6.44

$$$$

Short answer for CS(=O)(=O)[C@H]1CC[C@H](Nc2nccc(-c3sc(C45CC(C(F)(F)F)(C4)C5)nc3-c3cccc(NS(=O)(=O)N4CCc5ccc(C#N)cc54)c3F)n2)CC1 : pIC50 was 6.57

---

Assign IC50 to each entry below.
measured_on: CDK2 (Homo sapiens)
Construct: endogenous in cells; host or cells: OVCAR3 cells
assay_name: Phospho-RB measurement in OVCAR3 cells (HTRF phospho-RB cellular kit)
Type: cell-based
condition_notes: inhibition of RB phosphorylation at S807/811 (HTRF, TR-FRET ratio 665/620), 24 h compound treatment, 0.3 to 10,000 nM
Give bare numbers, in nM.

# annotated cases, reported IC50 shown
>  <compound>
CN(C)CCOc1ccc2c(c1)N(S(=O)(=O)Nc1cccc(-c3nc(C(C)(C)C)sc3-c3ccnc(NC4CCN(S(C)(=O)=O)CC4)n3)c1F)CC2

>  <measured_on>
CDK2 (Homo sapiens)

>  <endpoint>
IC50

>  <output_unit>
nM

>  <readout_value>
1660

$$$$
>  <compound>
CC(O)c1cccc2c1CCN2S(=O)(=O)Nc1cccc(-c2nc(C(C)(C)C)sc2-c2ccnc(NC3CC4(C3)CS(=O)(=O)C4)n2)c1F (stereo not drawn)

>  <measured_on>
CDK2 (Homo sapiens)

>  <endpoint>
IC50

>  <output_unit>
nM

>  <readout_value>
145

$$$$
>  <compound>
O=S1(=O)CC2(CC(Nc3nccc(-c4sc(C56CC(C5)C6)nc4-c4cccc(NS(=O)(=O)N5C6CCC5CC6)c4F)n3)C2)C1

>  <measured_on>
CDK2 (Homo sapiens)

>  <endpoint>
IC50

>  <output_unit>
nM

>  <readout_value>
5270

$$$$
>  <compound>
Cn1c(-c2ccc3c(c2)N(S(=O)(=O)Nc2cccc(-c4nc(C(C)(C)C)sc4-c4ccnc(NC5CC6(C5)CS(=O)(=O)C6)n4)c2F)CC3)cccc1=O

>  <measured_on>
CDK2 (Homo sapiens)

>  <endpoint>
IC50

>  <output_unit>
nM

>  <readout_value>
802

$$$$
>  <compound>
CC1(S(C)(=O)=O)CCC(Nc2nccc(-c3sc(C45CC(C(F)(F)F)(C4)C5)nc3-c3cccc(NS(=O)(=O)N4CCc5ccccc54)c3F)n2)CC1 (stereo not drawn)

>  <measured_on>
CDK2 (Homo sapiens)

>  <endpoint>
IC50

>  <output_unit>
nM

>  <readout_value>
3060

$$$$
>  <compound>
CC(C)(C)c1nc(-c2cccc(NS(=O)(=O)N3Cc4cccc(-c5cccc(C#N)c5)c4C3)c2F)c(-c2ccnc(NC3CCN(S(C)(=O)=O)CC3)n2)s1

>  <measured_on>
CDK2 (Homo sapiens)

>  <endpoint>
IC50

>  <output_unit>
nM

>  <readout_value>
517

$$$$

Report IC50 for each item below.
1. COc1ccc2c(c1)CN(S(=O)(=O)Nc1cccc(-c3nc(C(C)(C)C)sc3-c3ccnc(NC4CCN(S(C)(=O)=O)CC4)n3)c1F)C2
2. CNC(=O)c1cccc2c1CN(S(=O)(=O)Nc1cccc(-c3nc(C(C)(C)C)sc3-c3ccnc(NC4CCN(S(C)(=O)=O)CC4)n3)c1F)C2

Response:
185
389
